Details: in n-butanol, 283.15 K
RECORDED_ENDPOINT: solubility (mole fraction)

>>> reported_value("c1ccc(-c2ccc(C(c3ccccc3)n3ccnc3)cc2)cc1 (stereo unspecified)")
0.00386

====

Details: in n-butyl acetate, 313.14 K
RECORDED_ENDPOINT: solubility (mole fraction)

>>> reported_value("c1ccc(-c2ccc(C(c3ccccc3)n3ccnc3)cc2)cc1 (stereo unspecified)")
0.00676

====

Settings: in isopentanol, 283.13 K
RECORDED_ENDPOINT: solubility (mole fraction)

>>> reported_value("c1ccc(-c2ccc(C(c3ccccc3)n3ccnc3)cc2)cc1 (stereo unspecified)")
0.00402

====

Details: in acetonitrile, 323.11 K
RECORDED_ENDPOINT: solubility (mole fraction)

>>> reported_value("c1ccc(-c2ccc(C(c3ccccc3)n3ccnc3)cc2)cc1 (stereo unspecified)")
0.00682

====

Settings: in methyl acetate, 303.17 K
RECORDED_ENDPOINT: solubility (mole fraction)

>>> reported_value("c1ccc(-c2ccc(C(c3ccccc3)n3ccnc3)cc2)cc1 (stereo unspecified)")
0.00618

====

Details: in n-propanol, 313.16 K
RECORDED_ENDPOINT: solubility (mole fraction)

>>> reported_value("c1ccc(-c2ccc(C(c3ccccc3)n3ccnc3)cc2)cc1 (stereo unspecified)")
0.0143

====

Settings: in ethyl acetate, 283.16 K
RECORDED_ENDPOINT: solubility (mole fraction)

>>> reported_value("c1ccc(-c2ccc(C(c3ccccc3)n3ccnc3)cc2)cc1 (stereo unspecified)")
0.00238

====

Settings: in n-butyl acetate, 288.16 K
RECORDED_ENDPOINT: solubility (mole fraction)

>>> reported_value("c1ccc(-c2ccc(C(c3ccccc3)n3ccnc3)cc2)cc1 (stereo unspecified)")
0.00233

====

Conditions: in n-propanol, 308.21 K
RECORDED_ENDPOINT: solubility (mole fraction)

>>> reported_value("c1ccc(-c2ccc(C(c3ccccc3)n3ccnc3)cc2)cc1 (stereo unspecified)")
0.0115

====

Conditions: in ethanol, 283.15 K
RECORDED_ENDPOINT: solubility (mole fraction)

>>> reported_value("c1ccc(-c2ccc(C(c3ccccc3)n3ccnc3)cc2)cc1 (stereo unspecified)")
0.0028
